assay: antimalarial activity against Dd2 strain (AID 2302);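 further: 0% = DMSO untreated growth and 100% = chloroquine plus artemisinin killed control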; conditions: P. falciparum Dd2 in RBCs, LDH growth readout, 72 h; at 2 µM
Calls of active or inactive are those of the source.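 How the source made its calls: active means growth inhibition above 50% at the single 2 µM test dose, taken to imply half-maximal potency below 2 µM; inactive means the rest.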
Give one outcome, nothing more. List: 1 (active), -1 (inactive)

Problem: Test call for this molecule, please: CC1CN(Cc2cccc(F)c2)CCN1c1ccc(NC(=O)c2cccs2)cc1 (configuration not stated)
Result: 1

Problem: Returns: the outcome recorded for COc1ccc(F)cc1-c1cccc(CNC2CCN(CC3Cn4c(=O)ccc5ccc(F)c3c54)CC2)c1 (configuration not stated) in this assay.
Result: -1

Problem: Could you check what this test reported for O=c1cc(NCc2ccccc2NCc2ccc(Cl)c(Cl)c2)[nH]c2ccccc12 ?
Result: 1

Problem: What did the test return for O=c1cc(NCCCNCc2scc3c(Cl)cc(C(F)(F)F)nc23)[nH]c2ccccc12 ?
Result: -1

Problem: I'd appreciate the recorded outcome for CC(C)C1C(O)=C(c2ccc3ccccc3c2)C(=O)N1Cc1cccc(F)c1 (configuration not stated) from this test.
Result: 1

Problem: Recorded test call requested for CN(C)c1ccc(Br)c(Br)c1
Result: -1

Problem: What did the test return for O=C(Nc1cccc(-c2nn3ccccc3c2-c2ccnc(Nc3ccccc3)n2)c1)c1cc(F)ccc1F ?
Result: 1

Problem: // param item: NCCc1cccc(-c2cnc3[nH]cc(-c4ccc(C(=O)O)cc4)c3c2)c1 ; yields the recorded call
Result: 1

Problem: Kindly provide the recorded test outcome for the following molecule: O=C(/C=C/c1ccc([N+](=O)[O-])cc1)N1CCC(NS(=O)(=O)c2cccc(C(F)(F)F)c2)CC1
Result: -1

Problem: Outcome logged for Cc1cccc2[nH]c(-c3cccc(-c4cccc(NC(=O)c5csnn5)c4)c3)nc12 in this assay:
Result: -1

Problem: Dear colleague, could you share the recorded outcome for Brc1cc(CNCCCNc2nc3ccccc3[nH]2)sc1Br when you have a moment?
Result: -1

Problem: Recorded call for CC(C)NC(=O)c1cccc(-c2cccc(OCCN3CCSCC3c3ccccc3)c2)c1 (configuration not stated) ?
Result: -1

Problem: Record lookup: outcome of this test for CCCCCN1CCCC(NS(=O)(=O)c2ccc(C(=O)Nc3ccc(C(F)(F)F)cc3)cc2)C1 (configuration not stated) ?
Result: -1

Problem: // outcome(item) with item = CS(=O)(=O)c1ccc(CNCc2ccc(-c3ccc(-c4nc5ccc(F)cc5[nH]4)s3)cc2)cc1
Result: 1

Problem: Recorded test outcome, item Cc1ccc(Nc2nc3cc(Nc4ccnc(Nc5ccc(CS(C)(=O)=O)cc5)n4)ccc3o2)cc1
Result: 1

Problem: Per the assay record, what outcome was assigned to COc1cc(Cc2cnc(N)nc2N)cc(OCCCCC2SC(=O)NC2=O)c1OC (configuration not stated) ?
Result: -1

Problem: Identify the outcome logged in this assay for the molecule shown: CC(C)C1C(O)=C(c2ccc3ccccc3c2)C(=O)N1CC1CCCCC1 (configuration not stated)
Result: -1

Problem: Returns: the outcome recorded for CCc1c(CCNCCc2cccc(CCNCCc3ccc(OC)c(OC)c3CC)c2)ccc(OC)c1OC in this assay.
Result: 1

Problem: Returns: the outcome recorded for COc1ccc2ncc(F)c(CCN3CCC(NCc4cc(OC)c5c(c4)OCCO5)CC3)c2n1 in this assay.
Result: 1

Problem: Field: outcome | Entry: CC(=O)Nc1ccc([N+](=O)[O-])c2c(Br)cccc12
Result: -1

Problem: Fill in: this test's call for N#Cc1ccc2c(c1)CCN(CCC1CCC(NC(=O)/C=C/c3cccc4ccccc34)CC1)CC2 (configuration not stated) is ___
Result: -1

Problem: I'd appreciate the recorded outcome for CCCNCCc1ccc(NS(=O)(=O)c2cccc(-c3ccc(Cl)cc3)c2)cc1 from this test.
Result: -1

Problem: Look up the recorded call for OCc1ccc(-c2cncc(Nc3ccc(F)c(Cl)c3)c2)cc1 in this test.
Result: 1

Problem: // param item: CCCN(CCCCCCNCCc1ccc(Cl)cc1)CCc1ccc(O)c(O)c1 ; yields the recorded call
Result: -1

Problem: Tell me the assay call for COc1cc(CN2CCC(N3CCc4cc(NC(=O)c5cc(C)on5)ccc43)C2)ccc1F (configuration not stated) please.
Result: 1

Problem: Fill in: this test's call for O=S(=O)(NCCN1CCCC1)c1ccc(-c2ccc(CNCc3ccc(F)cc3)cc2)s1 is ___
Result: -1

Problem: Hi, do you know how CN1CCN(CC2(Nc3nccc(NCCc4cn(C)c5ccccc45)n3)CCCCC2)CC1 came out in this test?
Result: -1

Problem: Would you mind telling me which call this test gave CCNc1cc(C(=O)N[C@@H](Cc2ccccc2)[C@H](O)CNCCc2cc(OC)cc(OC)c2)cc(N2CCCCS2(=O)=O)c1 ?
Result: -1

Problem: Which outcome was entered for the molecule CC(=O)Oc1cc(C(=O)Nc2ccc(Cl)cc2)cc2ccccc12 in this test?
Result: -1

Problem: Given COc1ccc(-c2ccc(NC(=O)c3cccc(Cl)c3)cc2)cc1CNC(C)C , state the outcome it received in this test.
Result: 1

Problem: Hi team, can someone confirm the assay call for c1ccc2c3c(ccc2c1)Sc1c(ccc2ccccc12)N3 ?
Result: -1

Problem: Recorded test call requested for O=C(Nc1ccc(-c2ccc(CN3CCNCC3)cc2)cc1)c1cccc(Cl)c1
Result: -1
